# TESTED ON: hCA II (Homo sapiens, UniProt P00918)
# PROCEDURE SUMMARY: hCA II inhibition, spectrophotometric esterase method (p-nitrophenyl acetate)
# Assay type: biochemical
# TEST CONDITIONS: p-nitrophenyl acetate substrate, 348 nm; read-out: K i (μM) hCA II
QUANTITY MEASURED: Ki (µM)

Guide cases for Ki, answers given:
[[record]]
smiles_structure = "CC(=O)n1nc(C)n(N=Cc2cccc(OS(=O)(=O)c3ccc(C)cc3)c2)c1=O"
result = 19.7

[[record]]
smiles_structure = "CC(=O)n1nc(Cc2ccccc2)n(N=Cc2cccc(OS(=O)(=O)c3ccc(C)cc3)c2)c1=O"
result = 17.3

[[record]]
smiles_structure = "CC(=O)n1nc(Cc2ccc(Cl)cc2)n(N=Cc2cccc(OS(=O)(=O)c3ccc(C)cc3)c2)c1=O"
result = 18.1


[I] CCc1nn(C(C)=O)c(=O)n1N=Cc1cccc(OS(=O)(=O)c2ccc(C)cc2)c1
[II] CC(=O)n1nc(Cc2ccc(C)cc2)n(N=Cc2cccc(OS(=O)(=O)c3ccc(C)cc3)c2)c1=O
Sorting by Ki in descending order, would I or II appear first? // return label of chosen record
I
(I: 21.9 µM, II: 11.7 µM)

* * *

# TESTED ON: hCA I (Homo sapiens, UniProt P00915)
# Sequence (P00915 whole entry): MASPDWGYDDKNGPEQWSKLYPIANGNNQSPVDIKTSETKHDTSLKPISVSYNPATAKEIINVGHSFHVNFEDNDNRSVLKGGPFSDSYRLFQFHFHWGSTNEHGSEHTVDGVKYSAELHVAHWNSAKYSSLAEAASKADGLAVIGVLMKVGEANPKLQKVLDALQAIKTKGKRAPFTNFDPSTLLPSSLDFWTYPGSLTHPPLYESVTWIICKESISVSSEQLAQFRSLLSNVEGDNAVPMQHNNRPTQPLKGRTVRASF
# PROCEDURE SUMMARY: hCA I inhibition, spectrophotometric esterase method (p-nitrophenyl acetate)
# Format: biochemical
# TEST CONDITIONS: p-nitrophenyl acetate substrate, 348 nm
QUANTITY MEASURED: IC50 (µM)

// solved cases for IC50 follow
[[record]]
smiles_structure = "CCc1nn(C(C)=O)c(=O)n1N=Cc1cccc(OS(=O)(=O)c2ccc(C)cc2)c1"
display_unit = "µM"
result = 13.7

[[record]]
smiles_structure = "CC(=O)n1nc(Cc2ccc(Cl)cc2)n(N=Cc2cccc(OS(=O)(=O)c3ccc(C)cc3)c2)c1=O"
display_unit = "µM"
result = 12.3

[[record]]
smiles_structure = "CC(=O)n1nc(C)n(N=Cc2cccc(OS(=O)(=O)c3ccc(C)cc3)c2)c1=O"
display_unit = "µM"
result = 11.4


[P] CC(=O)n1nc(Cc2ccccc2)n(N=Cc2cccc(OS(=O)(=O)c3ccc(C)cc3)c2)c1=O
[Q] CC(=O)n1nc(Cc2ccc(C)cc2)n(N=Cc2cccc(OS(=O)(=O)c3ccc(C)cc3)c2)c1=O
Lab log: flag the item ( P or Q ) with the smaller IC50 figure. Please respond with the label that marks your chosen entry.
Q
(Q: 7.12 µM, P: 10.2 µM)

* * *

# TESTED ON: hCA I (Homo sapiens, UniProt P00915)
# PROCEDURE SUMMARY: hCA I inhibition, spectrophotometric esterase method (p-nitrophenyl acetate)
# Assay type: biochemical
# TEST CONDITIONS: p-nitrophenyl acetate substrate, 348 nm; read-out: K i (μM) hCA I
QUANTITY MEASURED: Ki (µM)

[[record]]
smiles_structure = "CCc1nn(C(C)=O)c(=O)n1N=Cc1cccc(OS(=O)(=O)c2ccc(C)cc2)c1"
quantity_measured = "Ki"
result = 16.7

[[record]]
smiles_structure = "CC(=O)n1nc(Cc2ccccc2)n(N=Cc2cccc(OS(=O)(=O)c3ccc(C)cc3)c2)c1=O"
quantity_measured = "Ki"
result = 13.1

[[record]]
smiles_structure = "CC(=O)n1nc(C)n(N=Cc2cccc(OS(=O)(=O)c3ccc(C)cc3)c2)c1=O"
quantity_measured = "Ki"
result = 14


[I] CC(=O)n1nc(Cc2ccc(Cl)cc2)n(N=Cc2cccc(OS(=O)(=O)c3ccc(C)cc3)c2)c1=O
[II] CC(=O)n1nc(Cc2ccc(C)cc2)n(N=Cc2cccc(OS(=O)(=O)c3ccc(C)cc3)c2)c1=O
Exercise: compare I and II ; which one has the greater Ki? Your answer should be the label attached to the chosen record.
I

* * *

# TESTED ON: hCA II (Homo sapiens)
# PROCEDURE SUMMARY: hCA II inhibition, spectrophotometric esterase method (p-nitrophenyl acetate)
# Assay type: biochemical
# TEST CONDITIONS: p-nitrophenyl acetate substrate, 348 nm
QUANTITY MEASURED: IC50 (µM)

Worked set:
[[record]]
compound = "CC(=O)n1nc(Cc2ccccc2)n(N=Cc2cccc(OS(=O)(=O)c3ccc(C)cc3)c2)c1=O [6c]"
display_unit = "µM"
result = 14.5

[[record]]
compound = "CC(=O)n1nc(C)n(N=Cc2cccc(OS(=O)(=O)c3ccc(C)cc3)c2)c1=O [6a]"
display_unit = "µM"
result = 15.3

[[record]]
compound = "CC(=O)n1nc(Cc2ccc(Cl)cc2)n(N=Cc2cccc(OS(=O)(=O)c3ccc(C)cc3)c2)c1=O [6e]"
display_unit = "µM"
result = 16.8


[a] CC(=O)n1nc(Cc2ccc(C)cc2)n(N=Cc2cccc(OS(=O)(=O)c3ccc(C)cc3)c2)c1=O [6d]
[b] CCc1nn(C(C)=O)c(=O)n1N=Cc1cccc(OS(=O)(=O)c2ccc(C)cc2)c1 [6b]
Of a versus b , which is the one with smaller reported IC50? Return value: the label identifying the chosen record.
a
(a: 10.6 µM, b: 18.4 µM)

Entry source: paper PMC12409542
